Data credit: ChEMBL document CHEMBL1944528

So I've got a bunch of compounds here, and I need their IC50 values.
Test system: SW-620
measurement_protocol: Antiproliferative activity against human SW620 cells after 72 hrs by MTT assay
Type: functional, cell-based
measurement_setup: Homo sapiens, SW-620, 72 h; read-out: IC50
// return numeric value only (unit: µM, not printed)

Exercise: Write down IC50 measured for item CCOC(=O)CCCNC(=O)N1C(c2ccc(OC)cc2OC(C)C)=N[C@H](c2ccc(Cl)cc2)[C@@H]1c1ccc(Cl)cc1
Key: 8.02

Exercise: Write down IC50 measured for item COc1ccc(C2=N[C@H](c3ccc(Cl)cc3)[C@H](c3ccc(Cl)cc3)N2C(=O)NCC(=O)N2CCN(C)CC2)c(OC(C)C)c1
Key: 6.17

Exercise: Write down IC50 measured for item CCOC(=O)CCNC(=O)N1C(c2ccc(OC)cc2OC(C)C)=N[C@H](c2ccc(Cl)cc2)[C@@H]1c1ccc(Cl)cc1
Key: 9.41

Exercise: Write down IC50 measured for item COc1ccc(C2=N[C@H](c3ccc(Cl)cc3)[C@H](c3ccc(Cl)cc3)N2C(=O)NCCCC(=O)O)c(OC(C)C)c1
Key: 5.7
